- target_of_assay: Zap1 (UniProt P47043)
- Sequence: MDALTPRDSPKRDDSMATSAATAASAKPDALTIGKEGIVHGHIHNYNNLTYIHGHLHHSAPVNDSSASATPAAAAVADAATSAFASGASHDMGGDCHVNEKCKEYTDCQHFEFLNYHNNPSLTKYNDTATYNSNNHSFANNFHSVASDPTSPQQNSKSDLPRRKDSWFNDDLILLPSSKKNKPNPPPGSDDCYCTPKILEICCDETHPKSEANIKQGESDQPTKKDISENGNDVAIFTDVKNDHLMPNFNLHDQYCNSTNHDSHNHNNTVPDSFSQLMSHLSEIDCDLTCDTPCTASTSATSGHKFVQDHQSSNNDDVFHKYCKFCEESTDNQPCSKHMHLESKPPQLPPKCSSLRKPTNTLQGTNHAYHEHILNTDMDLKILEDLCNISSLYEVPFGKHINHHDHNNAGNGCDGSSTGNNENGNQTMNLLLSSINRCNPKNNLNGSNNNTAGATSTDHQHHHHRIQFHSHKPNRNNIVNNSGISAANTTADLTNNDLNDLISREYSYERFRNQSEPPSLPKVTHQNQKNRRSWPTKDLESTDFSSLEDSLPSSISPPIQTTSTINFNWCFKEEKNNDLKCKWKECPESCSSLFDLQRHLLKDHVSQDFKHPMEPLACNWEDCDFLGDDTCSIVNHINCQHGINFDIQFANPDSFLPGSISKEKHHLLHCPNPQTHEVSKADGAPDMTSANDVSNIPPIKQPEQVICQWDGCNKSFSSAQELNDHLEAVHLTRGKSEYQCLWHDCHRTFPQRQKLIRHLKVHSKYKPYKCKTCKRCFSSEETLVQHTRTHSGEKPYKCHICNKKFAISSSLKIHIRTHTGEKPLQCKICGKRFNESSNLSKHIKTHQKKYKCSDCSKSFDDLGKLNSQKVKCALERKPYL
- experiment_summary: PBM E-score (8-mer binding enrichment) (E-score (-0.5 to 0.5)); higher = stronger / more preferred TF binding
- assay_conditions: protein concentration: 200 nM; construct: GST-full length
Whole data set: some 33,000 sequences, median “E-score (-0.5 to 0.5)” near -0.021, cut for the highest 2% near 0.32. The sample holds the highest values, similar sequences and a random draw of the others, so the mix is not that of the screen.
Categorize each record by its PBM E-score using lo (below -0.03), med (-0.03 to below 0.1), hi (0.1 or more)

    record_sequence        target_of_assay  assigned_label
 0         ATAGGTTA  Zap1 (UniProt P47043)              hi
 1         AGCCTTTC  Zap1 (UniProt P47043)              lo
 2         GTAGGTTA  Zap1 (UniProt P47043)              hi
 3         AGCCTTGC  Zap1 (UniProt P47043)              lo
 4         ACTGCGCA  Zap1 (UniProt P47043)              lo
 5         ATGTAACA  Zap1 (UniProt P47043)              hi
 6         TAGTTGCA  Zap1 (UniProt P47043)              hi
 7         ACCCTTGA  Zap1 (UniProt P47043)              hi
 8         AGCCTTTA  Zap1 (UniProt P47043)              hi
 9         GTCGAGCA  Zap1 (UniProt P47043)              lo
10         ATCCTTGG  Zap1 (UniProt P47043)              lo
11         GGGTCACA  Zap1 (UniProt P47043)              hi
12         ATCCTTTA  Zap1 (UniProt P47043)             med
13         CTACCTAG  Zap1 (UniProt P47043)              hi
14         CTAGCAAC  Zap1 (UniProt P47043)             med
15         ACCAGCAA  Zap1 (UniProt P47043)              hi
16         CTCACGAG  Zap1 (UniProt P47043)             med
17         CTGTAACA  Zap1 (UniProt P47043)             med
18         GAAGGAGA  Zap1 (UniProt P47043)              lo
19         ACTGTGGG  Zap1 (UniProt P47043)              lo
20         ACGCTTGA  Zap1 (UniProt P47043)             med
21         AACCTTCA  Zap1 (UniProt P47043)              hi
22         GACACACA  Zap1 (UniProt P47043)             med
23         CTAGGTTA  Zap1 (UniProt P47043)              hi
24         CCCCTTGC  Zap1 (UniProt P47043)             med
25         AGCCTTGG  Zap1 (UniProt P47043)              lo
26         CATCGACC  Zap1 (UniProt P47043)              lo
27         GGCCTTTA  Zap1 (UniProt P47043)              hi
28         AACCTTTC  Zap1 (UniProt P47043)              hi
29         AAACTTCA  Zap1 (UniProt P47043)             med
30         ACAAACTG  Zap1 (UniProt P47043)              lo
31         ATGTAACC  Zap1 (UniProt P47043)              hi
32         ATCTCGTA  Zap1 (UniProt P47043)              lo
33         AAGCAATG  Zap1 (UniProt P47043)             med
34         CATATGGA  Zap1 (UniProt P47043)              lo
35         AGGACATG  Zap1 (UniProt P47043)             med
36         AACCTTCC  Zap1 (UniProt P47043)              hi
37         GACCTTTA  Zap1 (UniProt P47043)              hi
38         GTAGGTGA  Zap1 (UniProt P47043)             med
39         CTGTAAAC  Zap1 (UniProt P47043)              hi
40         CGTCTCTA  Zap1 (UniProt P47043)              lo
41         ACTTTAGC  Zap1 (UniProt P47043)              lo
42         GAAGCATC  Zap1 (UniProt P47043)              lo
43         AGAAACCG  Zap1 (UniProt P47043)             med
44         ACCCTTGC  Zap1 (UniProt P47043)              hi
45         GGAGGCAA  Zap1 (UniProt P47043)              lo
